Reference source for all entries: ChEMBL document CHEMBL1649119

PROTOCOL SUMMARY: Clearance in healthy human at 6 mg/kg, iv administered as 30 mins infusion every 24 hrs measured on day 1
Format: ADME, organism-based
Set-up: dose 6 mg/kg, route intravenous
CONDITION PARAMETERS: in vivo
RESULT TYPE: clearance (mL/min/kg)
One number for each entry, in mL/min/kg.

The reported clearance of the compound CCCCCCCCCC(=O)N[C@@H](Cc1c[nH]c2ccccc12)C(=O)N[C@H](CC(N)=O)C(=O)N[C@@H](CC(=O)O)C(=O)N[C@@H]1C(=O)NCC(=O)N[C@@H](CCCN)C(=O)N[C@@H](CC(=O)O)C(=O)N[C@H](C)C(=O)N[C@@H](CC(=O)O)C(=O)NCC(=O)N[C@H](CO)C(=O)N[C@@H]([C@H](C)CC(=O)O)C(=O)N[C@@H](CC(=O)c2ccccc2N)C(=O)O[C@@H]1C was 0.143

====

PROTOCOL SUMMARY: Plasma concentration in old healthy human at 4 mg/kg, iv administered as single dose 30 mins infusion measured after 24 hrs
Type: ADME, organism-based
Set-up: dose 4 mg/kg, route intravenous
RESULT TYPE: concentration at 24 h (ng/mL)
Numbers only, in ng/mL.

The reported concentration at 24 h of the compound CCCCCCCCCC(=O)N[C@@H](Cc1c[nH]c2ccccc12)C(=O)N[C@H](CC(N)=O)C(=O)N[C@@H](CC(=O)O)C(=O)N[C@@H]1C(=O)NCC(=O)N[C@@H](CCCN)C(=O)N[C@@H](CC(=O)O)C(=O)N[C@H](C)C(=O)N[C@@H](CC(=O)O)C(=O)NCC(=O)N[C@H](CO)C(=O)N[C@@H]([C@H](C)CC(=O)O)C(=O)N[C@@H](CC(=O)c2ccccc2N)C(=O)O[C@@H]1C was 6380

====

PROTOCOL SUMMARY: Cmax in healthy human subjects at 12 mg/kg, iv administered as 30 mins infusion every 24 hrs measured on day 1
Type: ADME, organism-based
Design: dose 12 mg/kg, route intravenous
CONDITION PARAMETERS: in vivo
RESULT TYPE: Cmax
Quote the value and follow it with the unit of measurement.

The reported Cmax of the compound CCCCCCCCCC(=O)N[C@@H](Cc1c[nH]c2ccccc12)C(=O)N[C@H](CC(N)=O)C(=O)N[C@@H](CC(=O)O)C(=O)N[C@@H]1C(=O)NCC(=O)N[C@@H](CCCN)C(=O)N[C@@H](CC(=O)O)C(=O)N[C@H](C)C(=O)N[C@@H](CC(=O)O)C(=O)NCC(=O)N[C@H](CO)C(=O)N[C@@H]([C@H](C)CC(=O)O)C(=O)N[C@@H](CC(=O)c2ccccc2N)C(=O)O[C@@H]1C was 165 µg/mL

====

PROTOCOL SUMMARY: Plasma protein binding in human after 0.5 hrs
Assay type: ADME, cell-free
CONDITION PARAMETERS: read-out: PPB (converted)
RESULT TYPE: fraction unbound at 0.5 h
Numbers only.

The reported fraction unbound at 0.5 h of the compound CCCCCCCCCC(=O)N[C@@H](Cc1c[nH]c2ccccc12)C(=O)N[C@H](CC(N)=O)C(=O)N[C@@H](CC(=O)O)C(=O)N[C@@H]1C(=O)NCC(=O)N[C@@H](CCCN)C(=O)N[C@@H](CC(=O)O)C(=O)N[C@H](C)C(=O)N[C@@H](CC(=O)O)C(=O)NCC(=O)N[C@H](CO)C(=O)N[C@@H]([C@H](C)CC(=O)O)C(=O)N[C@@H](CC(=O)c2ccccc2N)C(=O)O[C@@H]1C was 0.058

====

PROTOCOL SUMMARY: Half life in adult human with hepatic impairment at 6 mg/kg, iv administered as single dose 30 mins infusion
Assay type: ADME, organism-based
Set-up: dose 6 mg/kg, route intravenous
CONDITION PARAMETERS: in vivo
RESULT TYPE: half-life (h)
Give bare numbers, in h.

The reported half-life of the molecule CCCCCCCCCC(=O)N[C@@H](Cc1c[nH]c2ccccc12)C(=O)N[C@H](CC(N)=O)C(=O)N[C@@H](CC(=O)O)C(=O)N[C@@H]1C(=O)NCC(=O)N[C@@H](CCCN)C(=O)N[C@@H](CC(=O)O)C(=O)N[C@H](C)C(=O)N[C@@H](CC(=O)O)C(=O)NCC(=O)N[C@H](CO)C(=O)N[C@@H]([C@H](C)CC(=O)O)C(=O)N[C@@H](CC(=O)c2ccccc2N)C(=O)O[C@@H]1C was 8.97

====

PROTOCOL SUMMARY: Clearance in healthy human at 8 mg/kg, iv administered as 30 mins infusion every 24 hrs measured on day 1
Assay type: ADME, organism-based
Parameters: dose 8 mg/kg, route intravenous
CONDITION PARAMETERS: in vivo
RESULT TYPE: clearance
Quote the value and follow it with the unit of measurement.

The reported clearance of the compound CCCCCCCCCC(=O)N[C@@H](Cc1c[nH]c2ccccc12)C(=O)N[C@H](CC(N)=O)C(=O)N[C@@H](CC(=O)O)C(=O)N[C@@H]1C(=O)NCC(=O)N[C@@H](CCCN)C(=O)N[C@@H](CC(=O)O)C(=O)N[C@H](C)C(=O)N[C@@H](CC(=O)O)C(=O)NCC(=O)N[C@H](CO)C(=O)N[C@@H]([C@H](C)CC(=O)O)C(=O)N[C@@H](CC(=O)c2ccccc2N)C(=O)O[C@@H]1C was 0.12 mL/min/kg

====

PROTOCOL SUMMARY: Apparent volume of distribution during terminal phase in healthy human subjects at 12 mg/kg, iv administered as 30 mins infusion every 24 hrs measured on day 14
Format: ADME, organism-based
Design: dose 12 mg/kg, route intravenous
CONDITION PARAMETERS: in vivo
RESULT TYPE: Vd (L/kg)
Numbers only, in L/kg.

The reported Vd of the compound CCCCCCCCCC(=O)N[C@@H](Cc1c[nH]c2ccccc12)C(=O)N[C@H](CC(N)=O)C(=O)N[C@@H](CC(=O)O)C(=O)N[C@@H]1C(=O)NCC(=O)N[C@@H](CCCN)C(=O)N[C@@H](CC(=O)O)C(=O)N[C@H](C)C(=O)N[C@@H](CC(=O)O)C(=O)NCC(=O)N[C@H](CO)C(=O)N[C@@H]([C@H](C)CC(=O)O)C(=O)N[C@@H](CC(=O)c2ccccc2N)C(=O)O[C@@H]1C was 0.0992

====

PROTOCOL SUMMARY: AUC (0 to infinity) in healthy human at 6 mg/kg, iv administered as 30 mins infusion every 24 hrs measured on day 7
Type: ADME, organism-based
Design: time infinity, dose 6 mg/kg, route intravenous
CONDITION PARAMETERS: plasma
RESULT TYPE: AUC(0-inf) (µg·h/mL)
Answers are plain numbers, in µg·h/mL.

The reported AUC(0-inf) of the compound CCCCCCCCCC(=O)N[C@@H](Cc1c[nH]c2ccccc12)C(=O)N[C@H](CC(N)=O)C(=O)N[C@@H](CC(=O)O)C(=O)N[C@@H]1C(=O)NCC(=O)N[C@@H](CCCN)C(=O)N[C@@H](CC(=O)O)C(=O)N[C@H](C)C(=O)N[C@@H](CC(=O)O)C(=O)NCC(=O)N[C@H](CO)C(=O)N[C@@H]([C@H](C)CC(=O)O)C(=O)N[C@@H](CC(=O)c2ccccc2N)C(=O)O[C@@H]1C was 747

====

PROTOCOL SUMMARY: AUC (0 to infinity) in nonobese human at 4 mg/kg, iv administered as single dose 30 mins infusion
Assay type: ADME, organism-based
Parameters: time infinity, dose 4 mg/kg, route intravenous
CONDITION PARAMETERS: plasma
RESULT TYPE: AUC(0-inf) (µg·h/mL)
Numbers only, in µg·h/mL.

The reported AUC(0-inf) of the compound CCCCCCCCCC(=O)N[C@@H](Cc1c[nH]c2ccccc12)C(=O)N[C@H](CC(N)=O)C(=O)N[C@@H](CC(=O)O)C(=O)N[C@@H]1C(=O)NCC(=O)N[C@@H](CCCN)C(=O)N[C@@H](CC(=O)O)C(=O)N[C@H](C)C(=O)N[C@@H](CC(=O)O)C(=O)NCC(=O)N[C@H](CO)C(=O)N[C@@H]([C@H](C)CC(=O)O)C(=O)N[C@@H](CC(=O)c2ccccc2N)C(=O)O[C@@H]1C was 419

====

PROTOCOL SUMMARY: Cmax in healthy human subjects at 10 mg/kg, iv administered as 30 mins infusion every 24 hrs measured on day 14
Type: ADME, organism-based
Design: dose 10 mg/kg, route intravenous
CONDITION PARAMETERS: in vivo
RESULT TYPE: Cmax
Quote the value and follow it with the unit of measurement.

The reported Cmax of the compound CCCCCCCCCC(=O)N[C@@H](Cc1c[nH]c2ccccc12)C(=O)N[C@H](CC(N)=O)C(=O)N[C@@H](CC(=O)O)C(=O)N[C@@H]1C(=O)NCC(=O)N[C@@H](CCCN)C(=O)N[C@@H](CC(=O)O)C(=O)N[C@H](C)C(=O)N[C@@H](CC(=O)O)C(=O)NCC(=O)N[C@H](CO)C(=O)N[C@@H]([C@H](C)CC(=O)O)C(=O)N[C@@H](CC(=O)c2ccccc2N)C(=O)O[C@@H]1C was 139 µg/mL
